Entry source: patent US20150051144A1

assay.system: PCSK9 (Homo sapiens)
procedure.details: PCSK9-LDLR in vitro Binding Assay (solid phase, ELISA readout)
run.conditions: test compound concentration 10 μM
property.measured: inhibition at 10 µM (%)

| structure | assay.system | property.measured | endpoint.result |
| --- | --- | --- | --- |
| O=C(COc1ccc2c(c1)CCCC2=NOCc1ccc(C(F)(F)F)cc1)N1CCCCC1 | PCSK9 (Homo sapiens) | inhibition at 10 µM | 40 |
| CCC(=NOCc1ccc(C(F)(F)F)cc1)c1ccc(OCC(=O)N2CCCCC2)cc1 | PCSK9 (Homo sapiens) | inhibition at 10 µM | 32 |
| CCC(=NOCc1ccc(C(F)(F)F)cc1)c1ccc(OCC(=O)N2CCOCC2)cc1 | PCSK9 (Homo sapiens) | inhibition at 10 µM | 52 |
| CC(C)(C)OC(=O)N1CCC(ONC(=O)COc2ccc(C(Cc3ccccc3)=NOCc3ccc(C(F)(F)F)cc3)cc2)CC1 | PCSK9 (Homo sapiens) | inhibition at 10 µM | 50 |

====

Let's look at some molecules and their measured inhibition at 100 µM.
assay.system: PCSK9 (Homo sapiens, UniProt Q8NBP7)
Sequence (Q8NBP7 153-692): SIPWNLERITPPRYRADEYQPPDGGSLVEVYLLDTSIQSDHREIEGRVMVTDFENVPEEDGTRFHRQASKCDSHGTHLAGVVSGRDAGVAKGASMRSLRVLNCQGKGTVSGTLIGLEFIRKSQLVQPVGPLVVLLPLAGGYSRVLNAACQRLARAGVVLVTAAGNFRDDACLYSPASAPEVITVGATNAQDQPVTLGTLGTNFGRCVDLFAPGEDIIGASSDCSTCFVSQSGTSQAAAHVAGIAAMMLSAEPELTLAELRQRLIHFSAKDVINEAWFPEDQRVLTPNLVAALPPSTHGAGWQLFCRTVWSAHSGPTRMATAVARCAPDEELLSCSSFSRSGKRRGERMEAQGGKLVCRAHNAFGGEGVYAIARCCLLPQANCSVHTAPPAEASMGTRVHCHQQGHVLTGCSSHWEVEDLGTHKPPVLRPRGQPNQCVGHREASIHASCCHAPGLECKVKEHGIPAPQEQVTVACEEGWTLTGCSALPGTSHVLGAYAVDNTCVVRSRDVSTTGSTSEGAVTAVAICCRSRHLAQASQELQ
Sequence (Q8NBP7 31-152 partner limits assumed): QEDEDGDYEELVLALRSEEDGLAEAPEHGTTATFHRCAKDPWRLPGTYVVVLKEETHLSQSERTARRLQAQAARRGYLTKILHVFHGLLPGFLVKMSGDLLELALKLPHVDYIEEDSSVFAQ
procedure.details: PCSK9-LDLR in vitro Binding Assay (solid phase, ELISA readout)
run.conditions: test compound concentration 100 μM

| structure | assay.system | unit.spec | inhibition at 100 µM |
| --- | --- | --- | --- |
| O=C(COc1ccc2c(c1)CCCC2=NOCc1ccc(C(F)(F)F)cc1)N1CCCCC1 | PCSK9 (Homo sapiens, UniProt Q8NBP7) | % | 62 |
| CCC(=NOCc1ccc(C(F)(F)F)cc1)c1ccc(OCC(=O)N(CCO)c2ccccc2)cc1 | PCSK9 (Homo sapiens, UniProt Q8NBP7) | % | 54 |
| CCC(=NOCc1nc(-c2ccccc2)oc1C)c1ccc(OCC(=O)N2CCN(C)CC2)cc1 | PCSK9 (Homo sapiens, UniProt Q8NBP7) | % | 42 |
| [C-]#[N+]c1ccccc1NC(=O)COc1ccc2c(c1)CCCC2=NOCc1ccc(C(F)(F)F)cc1 | PCSK9 (Homo sapiens, UniProt Q8NBP7) | % | 58 |
| O=C(COc1ccc2c(c1)CCCC2=NOCc1ccc(C(F)(F)F)cc1)NN1CCCCC1 | PCSK9 (Homo sapiens, UniProt Q8NBP7) | % | 53 |
